Source of measurements: patent US20220033484A1

For each entry below, report its kon value.
- SUBJECT OF TEST: T1, cTnI quality control product recombinant protein (human, UniProt P19429 2-210, limits assumed)
- T1 construct: treated as the same molecule; also called cTnI antigen; cardiac troponin I
- PROTOCOL NOTES: AMC sensor, antibody immobilised, cTnI in solution
Don't forget the unit after the number, please.

What value of kon has been reported for the following binder? Mutation 1-45 (antibody, V domains shown, Built as m8) VH: EVQLQQSGPELVKPGASVKMSCKASGYTFTLYVVHWVKQKPGQGLEWIGYIQPYLDGTKYNEKFKGKATLTVDKSSSTAFMELSSLTSEDSAVYYCARSGYGQYGLAWLAYWGQGTLVTVSA VL: QAVVIQESALTTSPGETVTLTCRSSTGAVTTSQYANWVQEKPDHLFTGLIGGSQNRAPGVPARFSGSLIGDKAALTITGAQTEDEAIYFCALVYSNQWVFGGGTKLTVLG
38600 M⁻¹ s⁻¹

What value of kon has been reported for the following binder? Anti-cTnI-21C5 monoclonal antibody (recombinant) (antibody, mouse IgG2b, V domains shown, also called WT; Sample 1) VH: EVQLQQSGPELVKPGASVKMSCKASGYSFTLYVVHWVKQKPGQGLEWIGYIQPYLDGTRYNEKFKGKATLTVDKSSSTAFMELSSLTSEDSAVYYCARTGYGGYGLAWLAYWGQGTLVTVSA VL: QAVVIQESALTTSPGETVTLTCRSSSGAATTSQYANWVQEKPDHLFTGLIGGSNNRAPGVPARFSGSLIGDKAALTITGAQTEDEAIYFCAIVYSNHWVFGGGTKLTVLG
48000 M⁻¹ s⁻¹

What value of kon has been reported for the following binder? Mutation 1-23 (antibody, V domains shown, Built as m8) VH: EVQLQQSGPELVKPGASVKMSCKASGYTFTLYVIHWVKQKPGQGLEWIGYIYPYIDGTKYNEKFKGKATLTVDKSSSTAFMELSSLTSEDSAVYYCARSGYGGYGLAWLAYWGQGTLVTVSA VL: QAVVIQESALTTSPGETVTLTCRSSTGAVTTSNYANWVQEKPDHLFTGLIGGSQNRAPGVPARFSGSLIGDKAALTITGAQTEDEAIYFCALVYSNHWVFGGGTKLTVLG
41600 M⁻¹ s⁻¹

What value of kon has been reported for the following binder? Mutation 1-4 (antibody, V domains shown, Built as m8) VH: EVQLQQSGPELVKPGASVKMSCKASGYTFTLYVLHWVKQKPGQGLEWIGYIQPYIDGTKYNEKFKGKATLTVDKSSSTAFMELSSLTSEDSAVYYCARSGYGNYGLAWLAYWGQGTLVTVSA VL: QAVVIQESALTTSPGETVTLTCRSSTGAATTSQYANWVQEKPDHLFTGLIGGSNNRAPGVPARFSGSLIGDKAALTITGAQTEDEAIYFCALVYSNNWVFGGGTKLTVLG
46200 M⁻¹ s⁻¹

What value of kon has been reported for the following binder? Mutation 1-25 (antibody, V domains shown, Built as m8) VH: EVQLQQSGPELVKPGASVKMSCKASGYTFTIYVLHWVKQKPGQGLEWIGYIYPYLDGTKYNEKFKGKATLTVDKSSSTAFMELSSLTSEDSAVYYCARSGYGNYGLAWLAYWGQGTLVTVSA VL: QAVVIQESALTTSPGETVTLTCRSSTGAATTSNYANWVQEKPDHLFTGLIGGSQNRAPGVPARFSGSLIGDKAALTITGAQTEDEAIYFCALVYSNHWVFGGGTKLTVLG
80300 M⁻¹ s⁻¹

What value of kon has been reported for the following binder? Mutation 1-7 (antibody, V domains shown, Built as m8) VH: EVQLQQSGPELVKPGASVKMSCKASGYTFTIYVLHWVKQKPGQGLEWIGYIQPYLDGTKYNEKFKGKATLTVDKSSSTAFMELSSLTSEDSAVYYCARSGYGNYGLAWLAYWGQGTLVTVSA VL: QAVVIQESALTTSPGETVTLTCRSSTGAVTTSNYANWVQEKPDHLFTGLIGGSQNRAPGVPARFSGSLIGDKAALTITGAQTEDEAIYFCALVYSNHWVFGGGTKLTVLG
63600 M⁻¹ s⁻¹
